# Tested on: MCF7
# procedure.summary: Cytotoxicity against human MCF-7 cells assessed as growth inhibition measured after 72 hrs by SRB assay
# Type: functional
Recorded GI50 for the following molecules
I only need the number, in µM, no unit after it.

The following molecules have reported results that may help.
INSERT INTO measurements (molecule, reported_metric, units, reported) VALUES
  ('COc1ccc(NCC(O)COc2ccc(/C=C(\C#N)c3ccc(Cl)c(Cl)c3)cc2)cc1 (racemic)', 'GI50', 'µM', 5.2),
  ('N#C/C(=C\c1ccc(OCC(O)CNc2ccc(Br)cc2)cc1)c1ccc(Cl)c(Cl)c1 (racemic)', 'GI50', 'µM', 5.3);

In: Provide the reported GI50 (system: MCF7) for N#C/C(=C\c1ccc(OCC(O)CNC23CC4CC(CC(C4)C2)C3)cc1)c1ccc(Cl)c(Cl)c1 (racemic)
Out: 2

In: Give GI50 only, for CC(=O)c1ccc(N2CCN(CC(O)COc3ccc(/C=C(\C#N)c4ccc(Cl)c(Cl)c4)cc3)CC2)cc1 (racemic) , using MCF7 data.
Out: 11

In: # lookup: MCF7 GI50, key = N#C/C(=C\c1ccc(OCC(O)CN2CCN(c3ccc(C#N)cc3)CC2)cc1)c1ccc(Cl)c(Cl)c1 (racemic)
Out: 5.8

In: Look up and report GI50, with MCF7 as system, for Cc1ccc(CN2CCN(CC(O)COc3ccc(/C=C(\C#N)c4ccc(Cl)c(Cl)c4)cc3)CC2)cc1 (racemic)
Out: 1.7

In: Provide MCF7 GI50 reading for N#C/C(=C\c1ccc(OCC(O)CN2CCOCC2)cc1)c1ccc(Cl)c(Cl)c1 (racemic) .
Out: 5.3

In: Report value only: GI50, MCF7, CN(C)CC(O)COc1ccc(/C=C(\C#N)c2ccc(Cl)c(Cl)c2)cc1 (racemic)
Out: 1.9

---

# Test system: MCF7
# procedure.summary: Cytotoxicity against human MCF-7 cells assessed as growth inhibition measured after 72 hrs by SRB assay
# Format: functional
reported.metric: GI50 (µM)
State just the number; it will be interpreted in µM.

Example entries begin here.
INSERT INTO results (molecule, assay_system, units, reported) VALUES
  ('N#C/C(=C\c1ccc(OCC(O)CNC2C3CC4CC(C3)CC2C4)cc1)c1ccc(Cl)c(Cl)c1 (racemic)', 'MCF7', 'µM', 2.1),
  ('CC1CCN(CC(O)COc2ccc(/C=C(\C#N)c3ccc(Cl)c(Cl)c3)cc2)CC1 (racemic)', 'MCF7', 'µM', 2.3);

Could you now consider this next molecule?
In: Using known records, supply GI50 for N#C/C(=C\c1ccc(OCC(O)CN2CCN(c3ccc(Cl)cc3)CC2)cc1)c1ccc(Cl)c(Cl)c1 (racemic)
Out: 15

---

# System: BE(2)-C
# procedure.summary: Cytotoxicity against human BE2C cells assessed as growth inhibition measured after 72 hrs by SRB assay
# Format: functional
The entries below are paired with their reported GI50.
Write the number in µM without appending the unit.

INSERT INTO assay_data (molecule, assay_system, reported) VALUES
  ('N#C/C(=C\c1ccc(OCC(O)CN2CCCCC2)cc1)c1ccc(Cl)c(Cl)c1 (racemic)', 'BE(2)-C', 2.5);

In: Given the molecule N#C/C(=C\c1ccc(OCC(O)CNC2C3CC4CC(C3)CC2C4)cc1)c1ccc(Cl)c(Cl)c1 (racemic) , write its reported GI50.
Out: 2.6

---

# procedure.summary: Selectivity index, ratio of GI50 for human MCF10A cells to GI50 for human HT-29 cells by SRB assay
# Type: toxicity
# experimental.context: MCF10A cells versus HT-29 cells, read-out: RatioGI50
reported.metric: selectivity ratio
Answer using only a numeral; do not append any unit.

In: Quote selectivity ratio reported for COc1ccc(NCC(O)COc2ccc(/C=C(\C#N)c3ccc(Cl)c(Cl)c3)cc2)cc1 (racemic) please.
Out: 5.1

In: Give reported selectivity ratio value for N#C/C(=C\c1ccc(OCC(O)CN2CCCCC2)cc1)c1ccc(Cl)c(Cl)c1 (racemic)
Out: 3.8

In: # return recorded selectivity ratio for input CC1CCCCN1CC(O)COc1ccc(/C=C(\C#N)c2ccc(Cl)c(Cl)c2)cc1 (racemic)
Out: 6.9

In: Give selectivity ratio for CN(C)CC(O)COc1ccc(/C=C(\C#N)c2ccc(Cl)c(Cl)c2)cc1 (racemic)
Out: 3.7

---

# procedure.summary: Selectivity index, ratio of GI50 for human MCF10A cells to GI50 for human A2780 cells by SRB assay
# Format: toxicity
# experimental.context: MCF10A cells versus A2780 cells, read-out: RatioGI50
Listed molecules paired with reported selectivity ratio
Give your answer as a number; write no unit.

INSERT INTO results (molecule, reported_metric, reported) VALUES
  ('N#C/C(=C\c1ccc(OCC(O)CNc2ccccc2)cc1)c1ccc(Cl)c(Cl)c1 (racemic)', 'selectivity ratio', 4);

Then this molecule:
In: Find the measured selectivity ratio of N#C/C(=C\c1ccc(OCC(O)CN2CCN(c3ccc(Br)cc3)CC2)cc1)c1ccc(Cl)c(Cl)c1 (racemic) and report it.
Out: 3.5

---

Parameter GI50: see the listing below.
# Tested on: BE(2)-C
# procedure.summary: Cytotoxicity against human BE2C cells assessed as growth inhibition measured after 72 hrs by SRB assay
# Type: functional

INSERT INTO assay_data (compound, reported_metric, reported) VALUES
  ('N#C/C(=C\c1ccc(OCC(O)CN2CCC(c3ccccc3)CC2)cc1)c1ccc(Cl)c(Cl)c1 (racemic)', 'GI50', '2600 nM'),
  ('CN(C)CC(O)COc1ccc(/C=C(\C#N)c2ccc(Cl)c(Cl)c2)cc1 (racemic)', 'GI50', '2500 nM'),
  ('CC(=O)N1CCN(CC(O)COc2ccc(/C=C(\C#N)c3ccc(Cl)c(Cl)c3)cc2)CC1 (racemic)', 'GI50', '11000 nM'),
  ('N#C/C(=C\c1ccc(OCC(O)CN2CCN(c3ccccc3F)CC2)cc1)c1ccc(Cl)c(Cl)c1 (racemic)', 'GI50', '21000 nM'),
  ('CN1CCN(CC(O)COc2ccc(/C=C(\C#N)c3ccc(Cl)c(Cl)c3)cc2)CC1 (racemic)', 'GI50', '2400 nM'),
  ('N#C/C(=C\c1ccc(OCC(O)CNc2ccc(Br)cc2)cc1)c1ccc(Cl)c(Cl)c1 (racemic)', 'GI50', '11000 nM'),
  ('CC(=O)c1ccc(N2CCN(CC(O)COc3ccc(/C=C(\C#N)c4ccc(Cl)c(Cl)c4)cc3)CC2)cc1 (racemic)', 'GI50', '> 50000 nM'),
  ('N#C/C(=C\c1ccc(OCC(O)CN2CCN(c3ccccc3)CC2)cc1)c1ccc(Cl)c(Cl)c1 (racemic)', 'GI50', '16000 nM');

In: # return recorded GI50 for input Cc1ccc(N2CCN(CC(O)COc3ccc(/C=C(\C#N)c4ccc(Cl)c(Cl)c4)cc3)CC2)cc1 (racemic)
Out: 2700 nM

In: Fill in reported GI50 for this entry: N#C/C(=C\c1ccc(OCC(O)CNc2ccccc2)cc1)c1ccc(Cl)c(Cl)c1 (racemic)
Out: 13000 nM

In: Return reported GI50. Input compound: N#C/C(=C\c1ccc(OCC(O)CN2CCOCC2)cc1)c1ccc(Cl)c(Cl)c1 (racemic)
Out: 3000 nM

---

# reported GI50; entries follow
# System: BE(2)-C
# procedure.summary: Cytotoxicity against human BE2C cells assessed as growth inhibition measured after 72 hrs by SRB assay
# Format: functional
The reply should be a number in nM, with the unit left off.

INSERT INTO measurements (compound, reported) VALUES
  ('N#C/C(=C\c1ccc(OCC(O)CN2CCCC2)cc1)c1ccc(Cl)c(Cl)c1 (racemic)', 2800),
  ('N#C/C(=C\c1ccc(OCC(O)CN2CCN(c3ccc(Br)cc3)CC2)cc1)c1ccc(Cl)c(Cl)c1 (racemic)', 40000),
  ('N#C/C(=C\c1ccc(OCC(O)CN2CCCCCC2)cc1)c1ccc(Cl)c(Cl)c1 (racemic)', 2600);

In: Provide one value: measured GI50 of Cc1ccc(CN2CCN(CC(O)COc3ccc(/C=C(\C#N)c4ccc(Cl)c(Cl)c4)cc3)CC2)cc1 (racemic)
Out: 2000

In: Item N#C/C(=C\c1ccc(OCC(O)CN2CCN(c3ccc(C#N)cc3)CC2)cc1)c1ccc(Cl)c(Cl)c1 (racemic) : provide GI50
Out: 31000

In: Please report the measured GI50 for N#C/C(=C\c1ccc(OCC(O)CNc2ccc(Cl)cc2)cc1)c1ccc(Cl)c(Cl)c1 (racemic)
Out: 14000

In: Note GI50 for the compound shown: CC1CCCN(CC(O)COc2ccc(/C=C(\C#N)c3ccc(Cl)c(Cl)c3)cc2)C1 (racemic)
Out: 2600

---

# System: A2780
# procedure.summary: Cytotoxicity against human A2780 cells assessed as growth inhibition measured after 72 hrs by SRB assay
# Assay type: functional
reported.metric: GI50 (nM)
Please state the figure in nM; there is no need to write the unit.

INSERT INTO assay_data (compound, reported_metric, reported) VALUES
  ('N#C/C(=C\c1ccc(OCC(O)CNC2CCCCC2)cc1)c1ccc(Cl)c(Cl)c1 (racemic)', 'GI50', 2900);

In: Supply reported GI50 belonging to this compound: Cc1ccc(CN2CCN(CC(O)COc3ccc(/C=C(\C#N)c4ccc(Cl)c(Cl)c4)cc3)CC2)cc1 (racemic)
Out: 1500

In: Please indicate GI50 recorded for N#C/C(=C\c1ccc(OCC(O)CN2CCCCCC2)cc1)c1ccc(Cl)c(Cl)c1 (racemic)
Out: 3000

In: Give a short answer stating reported GI50 for N#C/C(=C\c1ccc(OCC(O)CN2CCOCC2)cc1)c1ccc(Cl)c(Cl)c1 (racemic) .
Out: 8900
